In this section, each of the molecules is paired with its reported pIC50.
# System: Echinochloa oryzicola
# assay_procedure: Herbicidal activity against Echinochloa oryzicola assessed as shoot length after 7 days by hydroponics test
# Type: functional, organism-based
# reported_conditions: 168 h, read-out: I50
Reminder that pIC50 is minus the log10 of a molar concentration.

COC(=O)C1(c2ccccc2)C(=O)N(C(C)(C)c2cc(Cl)cc(Cl)c2)C=C1C (configuration not stated) = 7.60

Switching to the query record.
Please look up its pIC50: CC1=C(c2ccccc2)C(=O)N(C(C)(C)c2cc(Cl)cc(Cl)c2)C1
7.92

Origin of the recorded values: ChEMBL document CHEMBL3045932
